target: T1, recombinant human CD3 epsilon/gamma heterodimer (human, UniProt P07766 23-126; P09693 23-116); assay: Octet BLI, mAb on FAB2G sensor, hCD3 E/G 200-50 nM; R^2 1.00
T1 construct: Recombinant protein in solution (200-50 nM) in the Octet assay; also called hCD3 E/G
T1 sequence (P07766 23-126, chain 1 of 2): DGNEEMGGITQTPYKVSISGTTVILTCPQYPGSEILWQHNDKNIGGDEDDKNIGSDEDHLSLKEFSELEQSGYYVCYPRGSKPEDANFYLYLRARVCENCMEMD
T1 sequence (P09693 23-116, chain 2 of 2): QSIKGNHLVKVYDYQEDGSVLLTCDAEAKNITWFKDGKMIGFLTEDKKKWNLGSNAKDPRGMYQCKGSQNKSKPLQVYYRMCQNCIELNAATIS
The binders listed here are annotated with their koff.
recorded-endpoint: koff

>>> measured("ABL-CD3-19 (antibody, V domains shown, Chimeric hybridoma mAb: human V, CH1, upper hinge; mouse middle hinge, CH2, CH3) VH: EVQLVESGGGLVKPGGSLRLSCAASGFTLSSYSMNWVRQAPGKGLEWVSSISRSSSYIYYADSVKGRFTISRDNAKNSLYLQMNSLRAEDTAVYYCARERWELLYFDYWGQGTLVTVSS VL: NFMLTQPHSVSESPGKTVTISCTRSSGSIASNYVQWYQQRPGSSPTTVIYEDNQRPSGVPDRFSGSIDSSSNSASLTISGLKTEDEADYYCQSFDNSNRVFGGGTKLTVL")
"0.00665 s⁻¹"
>>> measured("ABL-CD3-6 (antibody, V domains shown, Chimeric hybridoma mAb: human V, CH1, upper hinge; mouse middle hinge, CH2, CH3) VH: EVQLVDSGGGLVKPGGSLRLSCAASGFTFSSYSMNWVRQAPGKGLEWVSSISSRGSYRNYADSVKGRFTISRDNAKNSLYLQMNSLRAEDTAVYYCARDRRELLLDCWGQGTLVTVSS VL: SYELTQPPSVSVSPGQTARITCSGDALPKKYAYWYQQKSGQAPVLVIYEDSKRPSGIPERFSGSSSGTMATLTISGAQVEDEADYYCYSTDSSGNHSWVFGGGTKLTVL")
"0.0779 s⁻¹"
>>> measured("ABL-CD3-15 (antibody, V domains shown, Chimeric hybridoma mAb: human V, CH1, upper hinge; mouse middle hinge, CH2, CH3) VH: EVQLVESGGGLVKPGGSLRLSCAASGFNCSSYSMNWVRQAPGKGLEWVSSISRSSNYIYYADSVKGRFSISRDDAKNSLYLQMNSLRAEDTAVYYCARERWIQLYSDYWGQGILVTVSS VL: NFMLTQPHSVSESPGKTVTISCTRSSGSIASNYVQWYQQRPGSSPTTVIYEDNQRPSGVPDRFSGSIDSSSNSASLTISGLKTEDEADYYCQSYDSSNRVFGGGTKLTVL")
"0.00113 s⁻¹"
>>> measured("ABL-CD3-25 (antibody, V domains shown, Chimeric hybridoma mAb: human V, CH1, upper hinge; mouse middle hinge, CH2, CH3) VH: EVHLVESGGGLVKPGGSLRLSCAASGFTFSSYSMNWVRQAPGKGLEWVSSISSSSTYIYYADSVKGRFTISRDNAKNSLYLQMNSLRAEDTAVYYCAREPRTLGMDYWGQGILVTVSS VL: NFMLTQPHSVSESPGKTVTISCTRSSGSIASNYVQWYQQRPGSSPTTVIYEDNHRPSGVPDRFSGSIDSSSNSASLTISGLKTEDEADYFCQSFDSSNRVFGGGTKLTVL")
"0.00113 s⁻¹"
